The reported measurements were obtained from patent US20060110401A1.

- target-desc: HLA-DP402 (DPB1*0402) (human), P20036
- procedure-summary: competition binding
- measurement-setup: chains peptide; modification not given
measured-attribute: IC50

Worked examples, 2 binders total:
INSERT INTO assay_data (binder, result) VALUES
  ('KPGIYRFVAPGERPSGMFD [27N 1495-1513]', '> 100 µM'),
  ('VGGVYLLPRRGPRLGVRATRKTSERSQ [2C 31-57]', '> 100 µM');

As a next step, examine the binder that follows.
IC50 in this record for AAKLVALGINAVAYYRGLDVSVIPTSGDV [24N 1404-1432] : 7.04 µM
